Biological target: Myeloperoxidase (Homo sapiens) (UniProt P05164)
Sequence (P05164 165-273 limits assumed): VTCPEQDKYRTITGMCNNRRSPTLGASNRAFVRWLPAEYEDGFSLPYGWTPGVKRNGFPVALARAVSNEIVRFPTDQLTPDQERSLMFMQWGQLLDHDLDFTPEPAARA
Sequence (P05164 279-745 limits assumed): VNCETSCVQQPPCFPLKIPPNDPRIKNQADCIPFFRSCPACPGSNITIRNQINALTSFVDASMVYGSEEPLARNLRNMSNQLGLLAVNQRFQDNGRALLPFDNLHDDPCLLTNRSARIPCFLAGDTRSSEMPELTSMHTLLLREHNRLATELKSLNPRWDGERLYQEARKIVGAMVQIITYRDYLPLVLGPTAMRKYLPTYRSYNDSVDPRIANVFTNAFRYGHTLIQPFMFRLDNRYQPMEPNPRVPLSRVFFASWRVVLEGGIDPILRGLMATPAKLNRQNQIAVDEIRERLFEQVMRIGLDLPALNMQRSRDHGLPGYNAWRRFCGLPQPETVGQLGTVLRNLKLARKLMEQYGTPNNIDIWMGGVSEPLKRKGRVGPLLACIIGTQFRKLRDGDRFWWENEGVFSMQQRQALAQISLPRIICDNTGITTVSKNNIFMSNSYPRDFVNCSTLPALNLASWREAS
Assay: Inhibition of recombinant MPO (unknown origin) assessed as reduction in TMB peroxidation by measuring residual activity at 5 uM in presence of H2O2 incubated for 5 mins followed by 100 fold enzyme dilution relative to control
Assignment: determine reported Activity for the given molecules.

Which Activity reading was recorded for the molecule `Cc1cccc(Nc2ccccc2C(=O)O)c1C` ?
82%

Similarly, `O=c1c(O)c(-c2ccc(O)c(O)c2)oc2cc(O)cc(O)c12` ?
78%

Similarly, `CC(C)NCC(=O)c1nc2cc(F)ccc2[nH]1` ?
87%

Similarly, `O=c1c(O)c(-c2ccc(O)cc2)oc2cc(O)cc(O)c12` ?
81%

Similarly, NNc1nncc2ccccc12 [HYDRALAZINE] ?
9%

Similarly, `Fc1ccc2[nH]c([C@@H]3CCN(CC4NC=CN4)C3)nc2c1` ?
84%

Similarly, `COc1cc(N[C@H](C)CCCN)c2ncccc2c1` ?
91%

Similarly, `COc1ccc2c(C)nc(NC(=N)N)nc2c1` ?
4%
